# ASSAY COMMENT: Stability of pitavastatin calcium crystalline form at 40° C./75% RH and 25° C./60% RH (water by KF, related substances)
# Assay type: physicochemical
# CONDITION CONTEXT: Initial
PROPERTY MEASURED: Related Substances: Total Impurities

- SMILES: "O=C(O)C[C@H](O)C[C@H](O)/C=C/c1c(C2CC2)nc2ccccc2c1-c1ccc(F)cc1"
  PROPERTY MEASURED: "Related Substances: Total Impurities"
  RESULT: "0.32%"

###

# ASSAY COMMENT: Stability of pitavastatin calcium crystalline form at 40° C./75% RH and 25° C./60% RH (water by KF, related substances)
# Assay type: physicochemical
# CONDITION CONTEXT: 3 month, 40° C. ± 2° C., RH 75% ± 5%
PROPERTY MEASURED: Related Substances: Diastereomer (%)

- SMILES: "O=C(O)C[C@H](O)C[C@H](O)/C=C/c1c(C2CC2)nc2ccccc2c1-c1ccc(F)cc1"
  NUMERIC RESULT: 0.11

FYI, the data here is from patent US9034901B2.
